Can you tell me composite z-score for the items I'm about to list?
target: Torsin-1A (Homo sapiens) (UniProt O14656); assay: small-molecule binders of mutant TOR1A in lysate, primary screen, cell lysate, small-molecule microarray, COS7 lysate, 635/667 nm fluorescence (AID 1150); settings: COS7 hTOR1A mutant lysate, 635 nm fluorescence, higher = more signal;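 note: score pools 667 nm emission and signal to noise measuring lysate protein binding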
Sequence (O14656 whole entry, looked up): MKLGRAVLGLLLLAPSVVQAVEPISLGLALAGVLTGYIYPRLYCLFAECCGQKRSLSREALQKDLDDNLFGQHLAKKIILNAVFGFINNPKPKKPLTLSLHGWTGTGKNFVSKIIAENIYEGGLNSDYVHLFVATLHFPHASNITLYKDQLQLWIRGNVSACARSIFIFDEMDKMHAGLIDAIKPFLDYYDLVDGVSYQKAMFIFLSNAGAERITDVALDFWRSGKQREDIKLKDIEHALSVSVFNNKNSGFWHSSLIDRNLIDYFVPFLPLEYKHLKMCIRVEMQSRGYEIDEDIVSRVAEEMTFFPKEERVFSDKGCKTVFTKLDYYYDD
# print the numeric value only

Ask: Given the entry CCOC(=O)C[C@H]1[C@H](OC(=O)c2ccc(C(=O)c3ccccc3)cc2)[C@@H](NC(=O)CC(C)C)c2cc(OCCCO)ccc2N1C(=O)c1ccc2ccccc2n1 , report its measured composite z-score.
Result: 0.15

Ask: Record: CC1CC/C=C\[C@H]2OC34C=CCN(Cc5ccccc5)C(=O)[C@H]3N(CCCO)C(=O)[C@@H]4C2C(=O)O1 (stereo partly drawn)
Result: -1.56

Ask: Proceed to COc1cc2c(cc1OC)CN(C(=O)[C@@H]1[C@H]3C(=O)O[C@H](c4ccccc4)[C@H](c4ccccc4)N3[C@H](c3ccccc3OCCO)[C@@]13C(=O)Nc1ccc(C#CCCO)cc13)CC2
Result: 0.344

* * *

assay: MM1S cell viability effects, profiling panel, calcein-AM fluorescence, 48 h, basal (AID 1165); details: higher = more signal;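 note: viability of MM1S multiple myeloma cells under basal unstimulated conditions; test concentration not given here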
Would you mind sorting the entries by z-score according to these classes? small value = under -0.8, mid value = from -0.8 up to 0.09, large value = 0.09 and over

Ask: Given C=C(CC1([C@@H](NP(=O)(c2ccccc2)c2ccccc2)[C@H]2C[C@@H]2CCCC)CC1)c1ccccc1 , name the class its z-score places it in.
Result: small value

Ask: # repeat for CC(C)C[C@@H]1NC(=O)[C@@H]2C[C@H](C(=O)O)[C@H](c3cccc(OCCO)c3)N2C1=O
Result: large value

Ask: Thanks! And COC(=O)c1c(CC[C@@H](CO)NC(=O)NCCn2cc(C3(O)CCCC3)nn2)oc(C(C)=O)c1C(=O)OC ?
Result: large value

Ask: Record: [N-]=[N+]=NCc1ccccc1C[C@]1(C(N)=O)COC(c2ccc(OCCCO)cc2)=N1
Result: mid value

Ask: Same question, COC(=O)C[C@H]1O[C@]2(C(=O)N(C)c3ccccc32)[C@@H](C)[C@@H]1[Si](C)(C)F this time
Result: mid value

Ask: Same thing, different compound: C=C(/C(=C/C[C@H](OC(C)=O)c1ccc(CO)o1)c1cc(C(=O)OC)ccc1OC)C(C)C
Result: small value

Ask: Do the same for COC(=O)[C@@]1(Cc2ccc(OC)cc2)[C@H]2c3cc(C(=O)N(C)C)n(CCc4ccccn4)c3C[C@H]2CN1C(=O)c1ccccc1 please
Result: small value

Ask: Then COCCOC(=O)N1C(=O)[C@@]2(c3cc(C#CC4(O)CCCCCC4)ccc31)[C@H](c1ccccc1OCCO)N1[C@H](c3ccccc3)[C@H](c3ccccc3)OC(=O)[C@H]1[C@@H]2C(=O)N1CCN(c2ncccn2)CC1 ?
Result: mid value

Ask: Here is the next compound: C=CCOC(=O)[C@@H]1[C@H]2C(=O)O[C@H](c3ccccc3)[C@H](c3ccccc3)N2[C@H](c2ccc(OCCOC(=O)[C@@H]3C[C@@H]4C(=O)NCC(=O)N4[C@@H]3c3ccc(O)cc3)cc2)[C@@]12C(=O)Nc1ccc(I)cc12
Result: mid value

Ask: And what about the compound COC(=O)[C@@]1(Cc2ccc(OC)cc2)[C@H]2c3cc(C(=O)N(C)C)n(Cc4ccc(S(C)(=O)=O)cc4)c3C[C@H]2CN1C(=O)c1ccccc1 ?
Result: large value

Ask: Same lookup for COc1ccc([C@H]2OC[C@@H]3C[C@@H](Cc4ccccc4)C(=O)N32)cc1 , please.
Result: small value

Ask: Consider next the compound C=CC(=C)[C@H]1Oc2ccccc2S(=O)(=O)N2CCC[C@@H]12 in the same way.
Result: mid value

Ask: Next: NCCCCCCNC(=O)[C@@H]1C[C@@H]2C(=O)NCC(=O)N2[C@@H]1c1ccc(O)cc1
Result: large value

* * *

test: small-molecule microarray binders of probe aLefty2, primary screen, biochemical, biotinylated probe, 635/667 nm fluorescence (AID 1094); conditions: higher = more signal;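 note: score merges spot fluorescence near 667 nm with spot signal-to-noise ratio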
reported property: composite z-score
Answer with a number only.

Ask: Can you look up the measured composite z-score of NC(=O)NCC#Cc1ccc2c(c1)[C@]1(C(=O)N2)[C@H](c2ccccc2OCCO)N2[C@H](c3ccccc3)[C@H](c3ccccc3)OC(=O)[C@H]2[C@@H]1C(=O)Nc1nc2ccccc2s1 for me?
Result: -0.0416

Ask: Item: CCOC(=O)C[C@H]1[C@H](OC(=O)c2ccc(C(=O)c3ccccc3)cc2)[C@@H](NC(=O)c2ccccc2)c2cc(OCCCO)ccc2N1C(=O)Cc1ccc(OC)cc1
Result: 0.0283

Ask: Param item: CC(C)NC(=O)[C@@]1(c2ccc([N+](=O)[O-])cc2)CC(=O)N(C2CCCCC2)[C@@H]1c1ccc(CO)cc1I
Result: 0.134

Ask: CN(C)CCCC[C@@H]1NC(=O)[C@@H]2C[C@H](C(=O)NCCCCCCN)[C@H](c3cccc(OCCO)c3)N2C1=O ?
Result: 1.03

Ask: Query COC(=O)C(CC#Cc1ccc2c(c1)[C@]1(C(=O)N2)[C@H](c2ccc(OCCO)cc2)N2[C@H](c3ccccc3)[C@H](c3ccccc3)OC(=O)[C@H]2[C@@H]1C(=O)N1CCc2cc(OC)c(OC)cc2C1)C(=O)OC next
Result: 0.365

Ask: Now give it for CCCC[C@@H]1C[C@H]1[C@@H](NC(=O)c1cccs1)c1ccc(-c2ccccc2)cc1 too.
Result: -0.121

Ask: Query C=C(COC)/C(=C/C[C@@H](OC(C)=O)c1ccc(OCCO)cc1)c1cnc2ccccc2c1 next
Result: -0.0998

* * *

experiment: binders of probe aFGF2 on microarray, primary screen, stem cell growth factor project, biochemical, small-molecule microarray, fluorescence 635/667 (AID 1067); settings: higher = more signal;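 note: measures binding of biotinylated aFGF2 protein to printed compounds on slides; z-score merges feature fluorescence and signal-to-noise across triplicate slides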
reported property: composite z-score

Ask: May I ask what composite z-score has been recorded for COC(=O)[C@@]1(Cc2ccccc2)[C@H]2c3cc(C(=O)N(C)C)n(Cc4ccsc4Br)c3C[C@H]2CN1C(=O)c1ccccc1 ?
Result: 0.215

Ask: Subsequent entry: CCS[C@H]1[C@@H](C(=O)O)[C@H](c2ccc(C)cc2)N(S(=O)(=O)c2ccc(C)cc2)[C@@H]1CC
Result: 0.0288

Ask: // query: COC(=O)[C@@]1(Cc2ccc(OC)cc2)[C@H]2c3cc(C(=O)N(C)C)n(Cc4ccc(S(C)(=O)=O)cc4)c3C[C@H]2CN1C(=O)c1ccccc1
Result: 0.27

Ask: # repeat for C[C@H]1NC(=O)[C@@]23C(=O)N[C@@H](Cc4ccccc4)C2[C@H](C)[C@@]2(C)O[C@H]2C3/C=C/C/C=C\CNC(=O)[C@@H]2CCCN2C1=O (some centres not stated)
Result: 0.0653

Ask: Subsequent entry: COc1cc(Br)cc(C(O)C2C=CC3C(=O)N(C)C(=O)C3N2N2CCCCC2)c1OC (configuration not stated)
Result: -0.053

Ask: And for O=C(OCc1ccccc1)C1=CCC2c3[nH]c4ccccc4c3C(=O)C1N2S(=O)(=O)c1ccccc1[N+](=O)[O-] (configuration not stated) ?
Result: 0.105

Ask: Lookup COC(=O)[C@@]1(Cc2ccc(OC)cc2)[C@H]2c3cc(C(=O)N4CCCC4)n(Cc4ccc(O)c(OC)c4)c3C[C@H]2CN1C(=O)c1ccccc1
Result: 0.694

* * *

test: yeast growth modulation, basal conditions, primary screen, YJM789 clinical isolate, OD600, 24 h (AID 1089);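 note: growth of clinical yeast isolate S. cerevisiae YJM 789 seeded 1000 cells per well; test concentration not given here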; conditions: S. cerevisiae YJM789 growth, higher = more signal, called active from +8 up or from −8 down
reported property: z-score
In your answer, state the number alone without any accompanying words.

Ask: Using the record for COc1cc(Br)cc(C(O)C2C=CC3C(=O)N(C)C(=O)C3N2N2CCCCC2)c1OC (centres undefined) , report its z-score.
Result: 0.733

Ask: Another molecule to look at: O=C(c1ccccc1)N1C(=O)[C@]2(COC(c3ccc(OCCCO)cc3)=N2)Cc2ccccc21
Result: -1.84

Ask: # iterate: C=CCNC(=O)[C@@H]1[C@H]2C(=O)O[C@H](c3ccccc3)[C@H](c3ccccc3)N2[C@H](c2ccccc2OCCO)[C@@]12C(=O)N(C(=O)OCCOC)c1ccccc12
Result: 2.86

Ask: Also check C=C(CCCC)/C(=C/C[C@@H](OC(=O)c1ccncc1)c1ccc(OCCO)cc1)c1cc(C(=O)OC)ccc1OC
Result: 0.594

* * *

system: glycogen synthase kinase-3 (GSK3A per assay name; protocol says GSK3B); test: GSK3 binders on small-molecule microarrays, primary screen, biochemical, small-molecule microarray, 635 nm fluorescence, GSK3A (AID 1103); details: small-molecule microarray binding, fluorescence 635 nm; higher = more signal; note: the record names both GSK3A and GSK3B
reported property: composite z-score
Provide a numeric answer; units are not to be included.

Ask: Reported composite z-score for OCCCC1=CC(c2cccs2)N(Cc2cc3c(cc2Br)OCO3)CC1 (centres undefined) : what is it?
Result: -0.0247

Ask: Check C=CCNC(=O)[C@@H]1[C@H]2C(=O)O[C@H](c3ccccc3)[C@H](c3ccccc3)N2[C@H](c2ccc(O)cc2)[C@@]12C(=O)Nc1ccc(C#CCNC(N)=O)cc12 too.
Result: -0.489

Ask: Also, COCCCNC(=O)[C@@H]1c2ccccc2C(=O)N(Cc2ccccc2Cl)[C@H]1c1ccc(CO)cc1 please.
Result: 1.17

Ask: Now consider COC(=O)[C@@]1(CCC(=O)OC(C)(C)C)N=C(c2ccc(OCCCO)cc2)O[C@H]1c1ccccc1N=[N+]=[N-] and answer again.
Result: -0.0727

Ask: How about this compound: O=C1C[C@@](C(=O)NCCN2CCOCC2)(c2ccc([N+](=O)[O-])cc2)[C@@H](c2ccc(CO)cc2I)N1CC12CC3CC(CC(C3)C1)C2
Result: 1.3

Ask: Please answer likewise for COc1cc2c(cc1OC)CN(C(=O)[C@H]1[C@@H]3C(=O)O[C@@H](c4ccccc4)[C@@H](c4ccccc4)N3[C@@H](c3ccc(O)cc3)[C@]13C(=O)Nc1ccccc13)CC2
Result: 0.691

Ask: Now consider CCCCC(CC)C(O)C1C=CC2C(=O)N(Cc3ccccc3)C(=O)C2N1n1cnnc1 (centres undefined) and answer again.
Result: -0.0058

Ask: Next compound up: C=CCC(OC(C)=O)[C@@H]1[C@@H](N(Cc2ccc(-c3ccccc3)cc2)C(=O)Cc2ccc(OC)cc2)c2cc(OCCCO)ccc2N1C(=O)Cc1ccc2ccccc2c1 (some centres undefined)
Result: -0.299

Ask: Please answer likewise for C=CCOC(=O)[C@H]1[C@@H]2C(=O)O[C@@H](c3ccccc3)[C@@H](c3ccccc3)N2[C@@H](c2ccc(OCCOC(=O)[C@H]3C[C@H]4C(=O)N[C@@H](CCCCNC(C)=O)C(=O)N4[C@H]3c3cccc(OCCO)c3)cc2)[C@]12C(=O)Nc1ccccc12
Result: 1.32

Ask: Now consider C=CC[C@]1(C(=O)NCCCOC)N=C(c2ccc(OCCCO)cc2)O[C@H]1c1ccccc1CN=[N+]=[N-] and answer again.
Result: 1.22

Ask: Param item: CCOC(=O)C1=CC[C@@H](c2ccccc2)N(S(=O)(=O)c2ccc(C)cc2)[C@H]1c1ccccc1C
Result: 0.683

Ask: Please do the same for CC(C)C(=C=CC[C@@H](O)c1ccc(OCCO)cc1)C[C@@H](O)COCc1ccccc1 as well.
Result: 0.099

Ask: Next compound: O=C(NCCO)C1=C[C@H](Oc2ccccc2I)[C@@H](O)[C@H](N(Cc2ccco2)C(=O)Cc2ccccc2)C1
Result: 0.349

Ask: Note, next up: CC(C)C(CO)N1C(=O)[C@@H]2C3C(=O)OCCC/C=C\[C@H]3OC23C=CCN(CCN2CCOCC2)C(=O)[C@@H]13 (some centres undefined)
Result: 0.0585
